Study System: human NaV1.6 (hNaV1.6) (Homo sapiens, UniProt Q9UQD0)
Construct: expressed in transfected cells; host or cells: HEK-293 (G418 selection)
Sequence (Q9UQD0 whole entry): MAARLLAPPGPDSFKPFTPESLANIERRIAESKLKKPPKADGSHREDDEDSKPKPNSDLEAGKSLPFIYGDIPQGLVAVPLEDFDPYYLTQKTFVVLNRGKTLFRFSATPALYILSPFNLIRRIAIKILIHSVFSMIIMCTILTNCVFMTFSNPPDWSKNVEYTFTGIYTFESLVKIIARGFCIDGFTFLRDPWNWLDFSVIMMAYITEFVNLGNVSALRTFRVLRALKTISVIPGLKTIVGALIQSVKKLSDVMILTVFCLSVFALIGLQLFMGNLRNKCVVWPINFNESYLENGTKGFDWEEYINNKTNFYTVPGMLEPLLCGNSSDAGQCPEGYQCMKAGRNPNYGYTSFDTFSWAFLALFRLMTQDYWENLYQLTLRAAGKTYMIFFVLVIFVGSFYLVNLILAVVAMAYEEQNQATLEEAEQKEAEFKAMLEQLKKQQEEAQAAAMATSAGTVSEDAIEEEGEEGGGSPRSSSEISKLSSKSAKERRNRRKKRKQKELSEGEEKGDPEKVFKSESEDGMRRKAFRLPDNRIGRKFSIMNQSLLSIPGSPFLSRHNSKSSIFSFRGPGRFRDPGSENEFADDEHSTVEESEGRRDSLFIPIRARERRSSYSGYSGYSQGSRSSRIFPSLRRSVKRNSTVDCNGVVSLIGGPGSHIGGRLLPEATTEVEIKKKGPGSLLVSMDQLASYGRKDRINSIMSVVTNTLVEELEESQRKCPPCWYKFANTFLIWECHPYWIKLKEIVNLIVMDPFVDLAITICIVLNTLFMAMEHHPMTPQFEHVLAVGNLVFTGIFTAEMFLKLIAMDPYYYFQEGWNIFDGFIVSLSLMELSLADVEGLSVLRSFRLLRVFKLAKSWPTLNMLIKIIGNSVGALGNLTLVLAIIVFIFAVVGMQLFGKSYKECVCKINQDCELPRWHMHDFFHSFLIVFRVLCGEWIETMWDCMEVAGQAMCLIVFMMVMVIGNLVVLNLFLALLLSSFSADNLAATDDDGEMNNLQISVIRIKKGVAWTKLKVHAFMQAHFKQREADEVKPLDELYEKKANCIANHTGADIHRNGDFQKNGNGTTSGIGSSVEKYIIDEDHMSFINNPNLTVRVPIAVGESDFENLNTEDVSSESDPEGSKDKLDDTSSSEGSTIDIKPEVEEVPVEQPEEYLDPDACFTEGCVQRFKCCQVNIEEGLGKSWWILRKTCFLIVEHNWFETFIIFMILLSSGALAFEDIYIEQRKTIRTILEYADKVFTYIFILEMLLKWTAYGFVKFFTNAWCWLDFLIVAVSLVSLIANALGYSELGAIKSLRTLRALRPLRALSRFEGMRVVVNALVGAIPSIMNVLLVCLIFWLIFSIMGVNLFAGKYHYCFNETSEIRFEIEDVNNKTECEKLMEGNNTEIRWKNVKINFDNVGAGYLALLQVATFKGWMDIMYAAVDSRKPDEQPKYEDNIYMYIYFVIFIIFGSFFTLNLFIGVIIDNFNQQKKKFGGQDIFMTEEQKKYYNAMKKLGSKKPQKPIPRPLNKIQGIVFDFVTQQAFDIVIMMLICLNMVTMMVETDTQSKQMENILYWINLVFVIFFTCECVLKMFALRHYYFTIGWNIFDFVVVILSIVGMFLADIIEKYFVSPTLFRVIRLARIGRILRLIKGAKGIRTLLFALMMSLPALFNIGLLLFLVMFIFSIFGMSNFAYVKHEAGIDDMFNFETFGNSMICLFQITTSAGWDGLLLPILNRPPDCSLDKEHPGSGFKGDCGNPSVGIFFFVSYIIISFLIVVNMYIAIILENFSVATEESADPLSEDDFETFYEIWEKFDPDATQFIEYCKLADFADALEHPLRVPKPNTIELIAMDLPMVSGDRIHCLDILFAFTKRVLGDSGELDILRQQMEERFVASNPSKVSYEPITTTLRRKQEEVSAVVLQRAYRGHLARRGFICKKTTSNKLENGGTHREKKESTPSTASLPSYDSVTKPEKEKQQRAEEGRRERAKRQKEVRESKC
Test Details: Modulation of late sodium current (INaL) at hNaV1.6, PatchXpress electrophysiology
Assay type: cell-based
Condition: HEK293, HEK-293 cells expressing recombinant human NaV1.6, late current evoked by 300 nM ATX-II, read-out: NaV 1.6 Assay Data (percent inhibition of INaL at hNaV1.6)
So I've got a bunch of molecules here, and I need their inhibition at 1 µM values.

Study these solved cases before continuing.
Request the reported inhibition at 1 µM associated with C[C@@H](Oc1ccc(-c2cn3c(C(F)(F)OC4CC4)nnc3cn2)cn1)C(F)(F)F [Compound 1]
> 70%

Form field: reported inhibition at 1 µM of COC(F)(F)c1nnc2cnc(-c3ccc(O[C@@H](C(C)C)C(F)(F)F)nc3)cn12 (single isomer, unassigned) [Compound 27]
> 70%

What does the data say about its inhibition at 1 µM? Entry: COC(F)(F)c1nnc2cnc(-c3ccc(O[C@@H](C)C(C)(F)F)nc3)cn12 (single isomer, unassigned) [Compound 16]
30 to 70%

Fill blank: measured inhibition at 1 µM of the molecule CCOC(F)(F)c1nnc2cnc(-c3ccc(O[C@@H](C(C)C)C(F)(F)F)nc3)cn12 (single isomer, unassigned) [Compound 26] is ____.
30 to 70%

Name the recorded inhibition at 1 µM for COC(F)(F)c1nnc2cnc(-c3ccc(O[C@H](C(C)C)C(F)(F)F)nc3)cn12 (single isomer, unassigned) [Compound 28] .
> 70%

Continue with the next molecule.
GET /values?readout=inhibition at 1 µM&item= CCOC(F)(F)c1nnc2cnc(-c3ccc(O[C@@H](C4CC4)C(F)(F)F)nc3)cn12 (single isomer, unassigned) [Compound 30]
> 70%

====

Study System: human NaV1.6 (hNaV1.6) (Homo sapiens, UniProt Q9UQD0)
Construct: expressed in transfected cells; host or cells: HEK-293 (G418 selection)
Test Details: Modulation of late sodium current (INaL) at hNaV1.6, PatchXpress electrophysiology
Type: cell-based
Condition: HEK293, HEK-293 cells expressing recombinant human NaV1.6, late current evoked by 300 nM ATX-II, read-out: NaV 1.6 Assay Data (percent inhibition of INaL at hNaV1.6)
Hi there, I'd appreciate the recorded inhibition at 1 µM for every entry that follows.

Would you mind listing inhibition at 1 µM for each of the following compounds?
1. C[C@H](Oc1ccc(-c2cn3c(C(F)(F)OC4CC4)nnc3cn2)cn1)C(F)(F)F
2. CC(C)OC(F)(F)c1nnc2cnc(-c3ccc(O[C@@H](C)C(F)(F)F)nc3)cn12
3. CCCOC(F)(F)c1nnc2cnc(-c3ccc(OCC(F)(F)F)nc3)cn12
4. CCCOC(F)(F)c1nnc2cnc(-c3ccc(O[C@H](C)C(F)(F)F)nc3)cn12

["> 70%", "> 70%", "> 70%", "> 70%"]

For every item in the list below, what is its measured inhibition at 1 µM?
1. CCOC(F)(F)c1nnc2cnc(-c3ccc(O[C@@H](C)C(F)F)nc3)cn12 (single isomer, unassigned)
2. COC(F)(F)c1nnc2cnc(-c3ccc(O[C@H](C)C(C)(F)F)nc3)cn12 (single isomer, unassigned)
3. CCOC(F)(F)c1nnc2cnc(-c3ccc(O[C@H](C4CC4)C(F)(F)F)nc3)cn12 (single isomer, unassigned)
4. CCOC(F)(F)c1nnc2cnc(-c3ccc(O[C@H](C)C(F)F)nc3)cn12 (single isomer, unassigned)
5. CC(C)OC(F)(F)c1nnc2cnc(-c3ccc(OCC(F)(F)F)nc3)cn12
6. CCOC(F)(F)c1nnc2cnc(-c3ccc(O[C@H](C(C)C)C(F)(F)F)nc3)cn12 (single isomer, unassigned)

> 70%
> 70%
> 70%
> 70%
> 70%
> 70%

Data provenance: patent US12655151B2
